- TARGET OR TEST SYSTEM: Cholinesterase (Homo sapiens)
- METHOD DESCRIPTION: Inhibition of BuChE in human liver microsomes assessed as dissociation constant for Michaelis complex formation by enzyme kinetic study
- EXPERIMENTAL CONDITIONS: Microsome
Overview of reported log10(Activity) across a group of compounds:
A value of 2 here means Activity of 100 in µM, since values are log10.

Check out these entries, answers already filled in.
>>> print(df.to_string())
                               smiles_input  experimental_value
0  O=C(NCc1ccccc1)O[C@H]1CO[C@H]2[C@@H]1OC[C@H]2OC(=O)c1ccccc1O               -2.00
1  CCNC(=O)O[C@H]1CO[C@H]2[C@@H]1OC[C@H]2OC(=O)c1ccccc1O               -1.12
2  O=C(NCc1ccccc1)O[C@H]1CO[C@H]2[C@@H]1OC[C@H]2OC(=O)c1cccnc1                0.28
3  O=C(NCc1ccccc1)O[C@H]1CO[C@H]2[C@@H]1OC[C@H]2O                1.27
4  CCCCNC(=O)O[C@H]1CO[C@H]2[C@@H]1OC[C@H]2OC(=O)c1ccccc1                0.41
5  O=C(NCc1ccccc1)O[C@H]1CO[C@H]2[C@@H]1OC[C@H]2OC(=O)c1ccc(-c2ccccc2)cc1               -0.40

q: Return the recorded log10(Activity) value; entry: Cc1ccccc1C(=O)O[C@@H]1CO[C@H]2[C@@H]1OC[C@@H]2OC(=O)NCc1ccccc1
a: -0.61

====

- TARGET OR TEST SYSTEM: Cholinesterase (Homo sapiens, UniProt P06276)
- Sequence (P06276 whole entry): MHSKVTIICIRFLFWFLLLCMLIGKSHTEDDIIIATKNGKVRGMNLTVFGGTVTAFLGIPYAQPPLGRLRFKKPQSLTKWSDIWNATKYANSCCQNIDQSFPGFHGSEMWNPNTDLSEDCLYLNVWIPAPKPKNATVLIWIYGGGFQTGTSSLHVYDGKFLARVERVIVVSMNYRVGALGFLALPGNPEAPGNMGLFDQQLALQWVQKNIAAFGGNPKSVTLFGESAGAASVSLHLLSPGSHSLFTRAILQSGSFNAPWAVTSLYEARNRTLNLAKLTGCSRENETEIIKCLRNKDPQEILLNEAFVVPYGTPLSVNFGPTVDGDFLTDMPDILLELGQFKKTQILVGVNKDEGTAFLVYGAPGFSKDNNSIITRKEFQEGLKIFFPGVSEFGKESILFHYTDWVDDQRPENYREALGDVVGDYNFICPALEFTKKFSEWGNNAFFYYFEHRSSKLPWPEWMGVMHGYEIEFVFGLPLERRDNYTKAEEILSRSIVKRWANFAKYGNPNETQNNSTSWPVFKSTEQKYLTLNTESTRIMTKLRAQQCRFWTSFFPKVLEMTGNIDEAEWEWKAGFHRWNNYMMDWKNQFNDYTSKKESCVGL
MEASUREMENT LABEL: pIC50
As a rule, pIC50 stands for the negative log10 of the concentration, concentration in M.

The following compounds have reported results that may help.
In [3]: df
Out[3]:
                               smiles_input  experimental_value
0  CN(C)C(=O)O[C@H]1CO[C@H]2[C@@H]1OC[C@H]2OC(=O)c1ccccc1O                8.19
1  Cc1ccccc1C(=O)O[C@@H]1CO[C@H]2[C@@H]1OC[C@@H]2OC(=O)NCc1ccccc1                8.92
2  O=C(NCc1ccccc1)O[C@H]1CO[C@H]2[C@@H]1OC[C@H]2OC(=O)c1ccccc1[N+](=O)[O-]                7.74
3  O=Nc1ccccc1C(=O)O[C@@H]1CO[C@H]2[C@@H]1OC[C@@H]2OC(=O)NCc1ccccc1                7.41
4  Nc1ccccc1C(=O)O[C@@H]1CO[C@H]2[C@@H]1OC[C@@H]2OC(=O)NCc1ccccc1                7.57
5  Nc1cccc(C(=O)O[C@@H]2CO[C@H]3[C@@H]2OC[C@@H]3OC(=O)NCc2ccccc2)c1                7.07
6  O=C(NCc1ccccc1)O[C@H]1CO[C@H]2[C@@H]1OC[C@H]2OC(=O)c1ccc([N+](=O)[O-])cc1                6.93
7  O=C(NCc1ccccc1)O[C@H]1CO[C@H]2[C@@H]1OC[C@H]2OC(=O)c1cccc([N+](=O)[O-])c1                7.49

q: Give recorded pIC50. CCN(CC)C(=O)O[C@H]1CO[C@H]2[C@@H]1OC[C@H]2OC(=O)c1ccccc1O
a: 5.58

q: Look up pIC50 of O=C(O[C@@H]1CO[C@H]2[C@@H]1OC[C@@H]2OC(=O)N1CCOCC1)c1ccccc1O and report it.
a: 5.98

q: Please give measured pIC50 of the following entry: O=C(NCc1ccccc1)O[C@H]1CO[C@H]2[C@@H]1OC[C@H]2OC(=O)c1ccccc1O
a: 9.82

q: Kindly indicate its recorded pIC50. Item: O=C(NCc1ccccc1)O[C@H]1CO[C@H]2[C@@H]1OC[C@H]2OC(=O)c1ccc(O)cc1
a: 6.49

q: Using known records, supply pIC50 for O=C(NCc1ccccc1)O[C@H]1CO[C@H]2[C@@H]1OC[C@H]2OC(=O)c1cccc(O)c1
a: 7.80

Cited source for all entries: ChEMBL document CHEMBL1156822
